experiment: Beagle dog PK study 1 (IV and PO, propylene glycol-based formulation); type: in vivo; conditions: beagle, dog, plasma, po, 5 mg/kg, PK study 1, PO 5 mg/kg, 0.25 h, Test Animal 1; read-out: Plasma concentration
propertyLabel: concentration at 0.25 h (ng/mL)

{"columns": ["lineNotation", "propertyLabel", "valueUnit", "readoutNumber"],
 "data": [
  ["CNC(=O)c1[nH]c(C(=O)NC2CCC2)cc1O[C@@H](C)c1ccccc1", "concentration at 0.25 h", "ng/mL", 173]
]}

====

test: Beagle dog PK study 1 (IV and PO, propylene glycol-based formulation); format: in vivo; settings: beagle, dog, plasma, po, 5 mg/kg, PK study 1, PO 5 mg/kg, 2 h, Test Animal 3; read-out: Plasma concentration

{"columns": ["lineNotation", "concentration at 2 h, ng/mL"],
 "data": [
  ["CNC(=O)c1[nH]c(C(=O)NC2CCC2)cc1O[C@@H](C)c1ccccc1", 1310]
]}

====

test: Beagle dog PK study 1 (IV and PO, propylene glycol-based formulation); format: in vivo; settings: beagle, dog, plasma, po, 5 mg/kg, PK study 1, PO 5 mg/kg, 8 h; read-out: Average plasma concentration, Mean

{"columns": ["compound", "concentration at 8 h / ng/mL"],
 "data": [
  ["CNC(=O)c1[nH]c(C(=O)NC2CCC2)cc1O[C@@H](C)c1ccccc1 [Example 101]", 11.3]
]}

====

assay: Beagle dog PK study 1 (IV and PO, propylene glycol-based formulation); type: in vivo; details: beagle, dog, plasma, po, 5 mg/kg, PK study 1, PO 5 mg/kg, 1 h, Test Animal 1; read-out: Plasma concentration

{"columns": ["molecule", "concentration at 1 h / ng/mL"],
 "data": [
  ["CNC(=O)c1[nH]c(C(=O)NC2CCC2)cc1O[C@@H](C)c1ccccc1 [Example 101]", 2220]
]}

====

test: Thermodynamic solubility in FaSSIF pH 6.5 buffer; assay type: physicochemical; settings: thermodynamic from solid, FaSSIF pH 6.5, 25° C., Method 2 (LCMS)

{"columns": ["molecule", "solubility thermodynamic"],
 "data": [
  ["CNC(=O)c1[nH]c(C(=O)NC2CCC(O)CC2)cc1OC(C)c1ccc(Cl)cc1 (single isomer, unassigned)", "1230 µM"]
]}

====

experiment: Beagle dog PK study 1 (IV and PO, propylene glycol-based formulation); assay type: in vivo; settings: beagle, dog, plasma, po, 5 mg/kg, PK study 1, PO 5 mg/kg, 24 h, Test Animal 1; read-out: Plasma concentration
propertyLabel: concentration at 24 h (ng/mL)

{"columns": ["lineNotation", "readoutNumber"],
 "data": [
  ["CNC(=O)c1[nH]c(C(=O)NC2CCC2)cc1O[C@@H](C)c1ccccc1", 4.58]
]}

====

Test: Beagle dog PK study 1 (IV and PO, propylene glycol-based formulation)
Format: in vivo
Settings: beagle, dog, plasma, po, 5 mg/kg, PK study 1, PO 5 mg/kg, 4 h; read-out: Average plasma concentration, Mean
Description: The purpose of this study was to examine the pharmacokinetics of Example 101 in beagle dogs. […] An oral PK study was also undertaken in Lewis rats—see Experimental Method C. Body weight was recoded prior to dosing, and detailed clinical observations were made prior to dosing and throughout the study, as needed. Subsequently, 17.320 mL Vitamin E TPGS was added, and the solution was vortexed and sonicated. Then, 51.960 mL water was added, and solution was then heated. […]

{"columns": ["compound", "concentration at 4 h"],
 "data": [
  ["CNC(=O)c1[nH]c(C(=O)NC2CCC2)cc1O[C@@H](C)c1ccccc1 [Example 101]", "166 ng/mL"]
]}
